Test system: Rattus norvegicus
assay_procedure: Antihyperglycemic activity in albino Rattus norvegicus Sprague-Dawley (rat) streptozotocin-induced diabetic model assessed as effect on AUC of blood glucose level at 100 mg/kg, po after 24 hr
Assay type: functional
label 1 if Activity is below -20%. label 0 if not; exact matches included in label 0.

molecule	classification
CC(C)Oc1c(-c2ccccc2)oc2c(ccc3occc32)c1=O	label 0

Lookup: State whether -20% exceeds Activity recorded for CCN(CC)CC(O)COc1c(-c2ccccc2)oc2c(ccc3occc32)c1=O (stereo not given) .
Found: label 1

Lookup: State whether -20% exceeds Activity recorded for `O=c1c(O)c(-c2ccccc2)oc2c1ccc1occc12` .
Found: label 1

Lookup: State whether -20% exceeds Activity recorded for `CN(C)C(=N)NC(=N)N` .
Found: label 0

Lookup: State whether -20% exceeds Activity recorded for O=c1c(O)c(-c2ccccc2)oc2c3c(ccc12)OCC3 [2',3'-DIHYDROKARANJONOL] .
Found: label 0
